Data provenance: patent US20220251105A1

EXPERIMENT_DESCRIPTION: single intravenous dose pharmacokinetics in Sprague Dawley rats
Type: in vivo
CONDITION_INFO: plasma, rat, male, single IV 5 mg/kg, read-out: Vdss
RECORDED_ENDPOINT: Vd (L/kg)
Respond numerically; units are L/kg and should not be typed.

Input line: Which value of Vd has been reported for CCOCc1cnc(Cl)nc1Oc1ccc2c(ccc3sc4c(c32)NC[C@@H](C)NC4=O)n1 [Compound 1] in the records?
Output line: 0.648

###

EXPERIMENT_DESCRIPTION: single oral dose pharmacokinetics in CD-1 mice
Format: in vivo, mouse
CONDITION_INFO: CD-1, plasma; mouse, male, single oral 100 mg/kg
RECORDED_ENDPOINT: AUC(0-inf)
Please format your answer as a value with the unit trailing.

Input line: Which value of AUC(0-inf) has been reported for CCOCc1cnc(Cl)nc1Oc1ccc2c(ccc3sc4c(c32)NC[C@@H](C)NC4=O)n1 in the records?
Output line: 19200 ng·h/mL

###

EXPERIMENT_DESCRIPTION: single oral dose pharmacokinetics in Sprague Dawley rats
Type: in vivo
CONDITION_INFO: Sprague Dawley, plasma; rat, male, single oral 30 mg/kg
RECORDED_ENDPOINT: AUC (ng·h/mL)
Respond numerically; units are ng·h/mL and should not be typed.

Input line: Which value of AUC has been reported for CCOCc1cnc(Cl)nc1Oc1ccc2c(ccc3sc4c(c32)NC[C@@H](C)NC4=O)n1 in the records?
Output line: 1190

###

EXPERIMENT_DESCRIPTION: single intravenous dose pharmacokinetics in Sprague Dawley rats
Type: in vivo
CONDITION_INFO: plasma, rat, female, single IV 5 mg/kg, read-out: Vdss
RECORDED_ENDPOINT: Vd (L/kg)
Respond numerically; units are L/kg and should not be typed.

Input line: Which value of Vd has been reported for CCOCc1cnc(Cl)nc1Oc1ccc2c(ccc3sc4c(c32)NC[C@@H](C)NC4=O)n1 in the records?
Output line: 0.561

###

EXPERIMENT_DESCRIPTION: single intravenous dose pharmacokinetics in CD-1 mice
Format: in vivo, mouse
CONDITION_INFO: CD-1, plasma; mouse, male, single IV 5 mg/kg
RECORDED_ENDPOINT: AUC (ng·h/mL)
Respond numerically; units are ng·h/mL and should not be typed.

Input line: Which value of AUC has been reported for CCOCc1cnc(Cl)nc1Oc1ccc2c(ccc3sc4c(c32)NC[C@@H](C)NC4=O)n1 in the records?
Output line: 4160

###

EXPERIMENT_DESCRIPTION: single intravenous dose pharmacokinetics in cynomolgus monkeys
Format: in vivo
CONDITION_INFO: cynomolgus, cynomolgus monkey, plasma; monkey, female, single IV 5 mg/kg
RECORDED_ENDPOINT: AUC(0-inf) (ng·h/mL)
Respond numerically; units are ng·h/mL and should not be typed.

Input line: Which value of AUC(0-inf) has been reported for CCOCc1cnc(Cl)nc1Oc1ccc2c(ccc3sc4c(c32)NC[C@@H](C)NC4=O)n1 in the records?
Output line: 2210

###

EXPERIMENT_DESCRIPTION: toxicokinetics, 28-day mouse study
Type: in vivo
CONDITION_INFO: female, Crl:CD1 (ICR), mouse, plasma, po, 750 mg/kg/day, mice, Study Day 21, female, 750 mg/kg/day
RECORDED_ENDPOINT: Cmax

Input line: Which value of Cmax has been reported for CCOCc1cnc(Cl)nc1Oc1ccc2c(ccc3sc4c(c32)NC[C@@H](C)NC4=O)n1 [Compound 1] in the records?
Output line: 23200 ng/mL
